procedure.text: yeast display, Sf9 membrane polyspecificity reagent, FACS + sequencing; frameworks hold sequencing errors
measured.metric: polyreactivity (PSR sort gate)

INPUT: Bench note: what polyreactivity (PSR sort gate) did QVQLVESGGGLVQAGGSLRLSCAASGIIFYTYAMGWYRQAPGKEREFVAGIRWSGSSTYYADSVKGRFTISRDNAKNTVYLQMNSLKPEDTAVYYCATGQPYGPLYSLGYGYWGQGTQVTVSS show?
OUTPUT: high polyreactivity

INPUT: Please give the result for QVQHVESGGGLVQAGGSLRLSCAASGRTFRYNAMGWSRQAPGKERELVAAISSGDRTNYADSVKGRFTISRDNAKYTVYLQMYSLKPEDTAVYYCAAQTDSYYDFDYWGQGTQVTVSS too.
OUTPUT: low polyreactivity

INPUT: Please give the result for QVQLEESGGGLVQAGGSLRLSCAASGSILDLNAMGWSRQATGKERELVAAISYSGDSTYYADSVKGRFTISRDNAKNTVYLQMNSQKPEDTAVYYCAAEVYGAVYDYWGQGTQVTVSS too.
OUTPUT: low polyreactivity

INPUT: Please give the result for QVQLVESGGGLVQAGGSLRLSCAASGSTIRYNAMGWYRQAPGKERELVAAISRTGGTTYYADSVKGRFTISRDNAKNTVYLQMNSLKPEDTAVYYCNAVQAPYLRYDYWGQGTQVTVSS too.
OUTPUT: high polyreactivity

Would you kindly look at the next entry?
INPUT: Bench note: what polyreactivity (PSR sort gate) did QVHHVESGGVLVQARVSLRLSCAASGIIIAYYAVGWYGQAPGKESELVAAITSGGSTSYADSVKGRFTISRDNAKNTVYLQMISLKPEDTAVYYCNTDPSGYESGYWGQGTQVTVSS show?
OUTPUT: low polyreactivity

---

procedure.text: yeast display, Sf9 membrane polyspecificity reagent, FACS + sequencing; frameworks hold sequencing errors
measured.metric: polyreactivity (PSR sort gate)

Examples with their reported polyreactivity (PSR sort gate) follow.
INPUT: Bench note: what polyreactivity (PSR sort gate) did QVQLVESGGGLVQAGGSLRLSCAASAFIFIIYAMGWYRQAPGKERELVAGIRWSGGSTYYADSVKGRFTISRDNAKNTVYLQMNSLKQEDTAVYYCNKDRGSLTLYTYDYWGQGTQVTVSS show?
OUTPUT: low polyreactivity

INPUT: Please give the result for QVQLVESGGGLVQAGGSLRLSCAASGFIFASNAMGWYRQAPGKERELVAGITKSGGSTYYADSVKGRFTISRDNAKNTVYLQMNSLKPEDTAVYYCAKVSYARAKSSGFYYWGQGTQVTVSS too.
OUTPUT: high polyreactivity

INPUT: Please give the result for QVQLVESGGGLVQARGSLRLSSAASRSTFNVYAMGWYRQAPGKERELVAGIRDSDGSTNYADSVKGRFTISRDNAKNTVYLQMNSLKPEDTAVYYCAADLYDINWSVWLDYWGQGTQVTVSS too.
OUTPUT: low polyreactivity

INPUT: Please give the result for QVQLVESGGGLVQAGGSLRLSCAASGRTFFPYVMGWYRQAPGKERELVATITWGGVSTYYADSVKGRFTISRDNAKNTVYLQMNSLKPEDTAVYYCAARYYRWRTIPEYYYWGQGTQVTVSS too.
OUTPUT: high polyreactivity

INPUT: Please give the result for QVQLVESGGGLVQAGGSLRLSCAASGRTFVQNAMGWYRQAPGKERELVAAITWSTSGTYYADSVKGRFTISRDNAKNTVYLQMNSLKPEDTAVYYCAKYLAAYTGGGGYWGQGTQVTVSS too.
OUTPUT: low polyreactivity

INPUT: Please give the result for QVQLVESGGGLVQAGGSLLLSCAASGRIFRSYTMGWYRQAPGKERELVAAITSYGGRTYYADSVKGRFTISRDNAKNTVYLQMNRLKPEDTAVYYCAAHLSRDKFDYWGQGTQVTVSS too.
OUTPUT: low polyreactivity

More entries:
INPUT: Bench note: what polyreactivity (PSR sort gate) did QVQLVESGGGLVQAGGSLRLSCAASGFIFYKYVMAWYRQAPGKERELVAAINWSGGSTYYADSVKGRFTISRDNAKNTVYLQMNSLKPEDTAVYYCAALSQYRYDYWGQGTQVTVSS show?
OUTPUT: high polyreactivity

INPUT: Please give the result for QVQLVESGGGLVQAGGSLRLSCAASGSTFGHYAMGWYRPAPGKERELVAGITDTDNHELRRLCEGRFTISRDNAKNTVYLQMNSLKPEDTAVYYCIADDTYYPLGGITGYDDWGQGTQVTVSS too.
OUTPUT: low polyreactivity

INPUT: Please give the result for QVQLVESGGGLVQAGGSLRLSCAASGRTFGRNAMGWYRQAPGKERELVAAISSSGTRTYYADSVKGRFTISRDNAKNTVYLQMNSLKPEDTAVYYCAVDTLRYKMDYWGQGTQVTVSS too.
OUTPUT: low polyreactivity

INPUT: Please give the result for QVQLVESGGGLVQAGGSLRLSCAASGFIFNLYAMGWYRQAPGKERELVAVISGSGVRTYYADSVKGRFTISRDNAKNTVYLQMNSLKPEDTAVYYCAARTYGGYEYWGQGTQVTVSS too.
OUTPUT: high polyreactivity

INPUT: Please give the result for QVQLVESGGGLVQAGGSLRLSCAASGRIFGVNAMGWYRQAPGKERELVAGITTSGGSTYYADSVKGRFTISRDNAKNTVYLQMNSLKPEDTAVYYFNGLTRRWYSLRSYDYWGQGTQVTVSW too.
OUTPUT: high polyreactivity
